- Tested target: HLA-A*02 (Homo sapiens, UniProt P04439, D140Y/D185E/D98H/E176V/E277Q/G131W/G231S/I119V/I121R/I166T/I218V/N151K/N90K/P208A/P217A/Q86G/Q94H/R138H/R169H)
- Protocol text: MHC binding assay, UV-ligand exchange with beta2m ELISA, HLA-A*02
- Test settings: peptide exchange yield
Endpoint name: MHC class I binding score, Peptide exchange

See these solved cases before continuing.
Substance	Result
19 (TLLPTVLTL; listed as Homo sapiens) [compound 19]	+++ (50%-75% = +++)
27 (KVFGDLDQV; listed as Homo sapiens) [compound 27]	+++ (50%-75% = +++)
323 (ILSVVNSQL; listed as Homo sapiens) [compound 323]	+++ (50%-75% = +++)
75 (ILDNVKNLL; listed as Homo sapiens) [compound 75]	+++ (50%-75% = +++)
47 (GLYQAQVNL; listed as Homo sapiens) [compound 47]	+++ (50%-75% = +++)

From here, focus on the item given below.
# substance 38 (KMQEDLVTL; listed as Homo sapiens) [compound 38] ; its MHC class I binding score, Peptide exchange = +++ (50%-75% = +++)

----------
- Tested target: HLA-A*02 (Homo sapiens, UniProt P04439, D140Y/D185E/D98H/E176V/E277Q/G131W/G231S/I119V/I121R/I166T/I218V/N151K/N90K/P208A/P217A/Q86G/Q94H/R138H/R169H)
- Protocol text: MHC binding assay, UV-ligand exchange with beta2m ELISA, HLA-A*02
- Test settings: peptide exchange yield
Endpoint name: MHC class I binding score, Peptide exchange

See these solved cases before continuing.
Substance	Result
327 (SIGDIFLKY; listed as Homo sapiens) [compound 327]	+++ (50%-75% = +++)
9 (FLGDYVENL; listed as Homo sapiens) [compound 9]	++ (20%-49% = ++)
87 (YLTEVFLHVV; listed as Homo sapiens) [compound 87]	+++ (50%-75% = +++)
333 (GTFLEGVAK; listed as Homo sapiens) [compound 333]	+++ (50%-75% = +++)

From here, focus on the item given below.
# substance 71 (GLITVDIAL; listed as Homo sapiens) [compound 71] ; its MHC class I binding score, Peptide exchange = +++ (50%-75% = +++)

----------
- Tested target: HLA-A*02 (Homo sapiens, UniProt P04439, D140Y/D185E/D98H/E176V/E277Q/G131W/G231S/I119V/I121R/I166T/I218V/N151K/N90K/P208A/P217A/Q86G/Q94H/R138H/R169H)
- Protocol text: MHC binding assay, UV-ligand exchange with beta2m ELISA, HLA-A*02
- Test settings: peptide exchange yield
Endpoint name: MHC class I binding score, Peptide exchange

See these solved cases before continuing.
Substance	Result
44 (GLLWQIIKV; listed as Homo sapiens) [compound 44]	++ (20%-49% = ++)
50 (EYALLYHTL; listed as Homo sapiens) [compound 50]	++ (20%-49% = ++)
17 (ILHEHHIFL; listed as Homo sapiens) [compound 17]	+++ (50%-75% = +++)
93 (SLLTQPIFL; listed as Homo sapiens) [compound 93]	+++ (50%-75% = +++)
56 (KILDLTRVL; listed as Homo sapiens) [compound 56]	++ (20%-49% = ++)

# substance 58 (ALDDSLTSL; listed as Homo sapiens) [compound 58] ; its MHC class I binding score, Peptide exchange = ++ (20%-49% = ++)

# substance 20 (ALDGHLYAI; listed as Homo sapiens) [compound 20] ; its MHC class I binding score, Peptide exchange = +++ (50%-75% = +++)

# substance 8 (KLGPFLLNA; listed as Homo sapiens) [compound 8] ; its MHC class I binding score, Peptide exchange = +++ (50%-75% = +++)

# substance 45 (VLGPTPELV; listed as Homo sapiens) [compound 45] ; its MHC class I binding score, Peptide exchange = +++ (50%-75% = +++)
